biological target: IL17-RE-IL-17C (Homo sapiens, UniProt Q8NFR9+Q9P0M4); assay: Inhibition of IL-17C/IL-17RE interaction (unknown origin) incubated for 1.5 hrs by ELISA method
Sequence (Q9P0M4 whole entry): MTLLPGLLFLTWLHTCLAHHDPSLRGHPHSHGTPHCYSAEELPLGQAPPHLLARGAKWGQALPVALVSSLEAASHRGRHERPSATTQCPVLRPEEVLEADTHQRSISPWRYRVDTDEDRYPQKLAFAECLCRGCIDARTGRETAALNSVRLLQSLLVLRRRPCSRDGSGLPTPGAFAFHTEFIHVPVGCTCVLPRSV
Sequence (Q8NFR9 whole entry): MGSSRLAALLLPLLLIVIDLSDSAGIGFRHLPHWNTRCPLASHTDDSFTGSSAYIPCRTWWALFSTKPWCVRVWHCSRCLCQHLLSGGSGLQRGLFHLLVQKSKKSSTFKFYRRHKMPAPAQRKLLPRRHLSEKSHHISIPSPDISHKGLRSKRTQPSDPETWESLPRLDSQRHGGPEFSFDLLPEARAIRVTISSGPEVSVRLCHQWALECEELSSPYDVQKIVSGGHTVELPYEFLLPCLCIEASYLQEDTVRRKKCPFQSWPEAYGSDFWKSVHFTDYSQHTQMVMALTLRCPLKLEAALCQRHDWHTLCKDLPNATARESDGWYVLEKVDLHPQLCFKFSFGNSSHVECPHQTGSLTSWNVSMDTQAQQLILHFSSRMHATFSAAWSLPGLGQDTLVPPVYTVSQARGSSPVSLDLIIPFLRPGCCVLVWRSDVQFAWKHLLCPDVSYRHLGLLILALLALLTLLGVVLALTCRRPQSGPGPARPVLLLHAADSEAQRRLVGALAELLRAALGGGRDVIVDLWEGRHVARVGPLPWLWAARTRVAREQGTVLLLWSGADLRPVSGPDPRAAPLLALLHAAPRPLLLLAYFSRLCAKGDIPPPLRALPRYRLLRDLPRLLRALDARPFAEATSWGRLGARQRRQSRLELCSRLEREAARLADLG
Positions of bridges follow the written chain, without caps; N, C: chain ends. Residues, ends and D or L forms follow the SMILES beside them.
measurement_type: IC50 (nM)
Hi! Could you send only the number? It should be in nM, unit omitted.

Requested read-out: IC50. Entry: CC[C@H](C)[C@@H]1NC(=O)[C@H](CCC(=O)O)NC(=O)CNC(=O)[C@H](Cc2ccc(O)cc2)NC(=O)[C@H](CC(C)C)NC(=O)[C@H]([C@@H](C)CC)NC(=O)[C@H](CCCNC(=N)N)NC(=O)[C@H](Cc2ccc(O)cc2)NC(=O)[C@H](Cc2ccc(O)cc2)NC(=O)[C@H](Cc2c[nH]cn2)NC(=O)[C@H](Cc2c[nH]cn2)NC(=O)[C@H](Cc2ccc(O)cc2)NC(=O)CSC[C@@H](C(=O)NCC(N)=O)NC(=O)CNC1=O ({CH2CO}-YHHYYRILYGEIGCG-NH2; thioether N-14) 422
